subject.of.test: glutathione S-transferase [GST: P08515]
Sequence (P08515 whole entry): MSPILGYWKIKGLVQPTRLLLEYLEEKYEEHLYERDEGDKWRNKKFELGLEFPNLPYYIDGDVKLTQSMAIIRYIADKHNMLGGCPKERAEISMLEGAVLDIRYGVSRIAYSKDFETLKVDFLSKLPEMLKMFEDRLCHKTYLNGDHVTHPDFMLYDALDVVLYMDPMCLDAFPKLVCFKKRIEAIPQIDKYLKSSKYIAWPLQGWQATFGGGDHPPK
test.description: indirect ELISA, GST coated
value.kind: ELISA affinity (LogIC50 (oD450nm))

- binder: "G49 (VHH) VHH: EVQLVESGGGLVQAGGSLRLSCAASRSTFSINAAGWYRQAPGKQRELVAAISSGGSANYADSVKGRFIISRDNAKNTVYLQMNSLKPEDTAVYYCRVPYYRDDGYEYYSWGQGTQVTVSS"
  ELISA affinity (LogIC50 (oD450nm)): 5.54

(P) G19 (VHH) VHH: QVQLVESGGGLVQAGGSLRLSCAASGSTFSTNAVDWYRQAPGNQRDLVATITSGGHTNYADSVKGRFTISRDNAKNTVYLQMNSLKPEDTAVYYCAVPHYREDGYEYRFWGQGTQVTVSS
(Q) G97 (VHH) VHH: EVQLVESGGGLVQAGGSLRLSCTASRSTFRVNPAGWYRQAPGKERELVARITSGGSTNYADSVKGRFTISRDNAKNTVYLQMNSLKPEDTAVYYCNVPCYMEDGYEHDAWGQGTQVTVSS
(R) G86 (VHH) VHH: EVQLVESGGGLVQAGDSLRLSCAASGRTFSSYTMGWFRQAPGKEREFVAGIRWSGGSTYFTNYEDSVKGRFTISKDNAKNTVFLQMNSLRPEDTAVYYCAFTGHYSTYDSPQRYDYWGQGTQVTVSS
Prompt line: Ascending by ELISA affinity (LogIC50 (oD450nm)), please. Provide the labels, sequenced as the question asks.
Response line: Q, R, P
(Q: 3.3, R: 5.54, P: 9)

These data points were gathered from patent US20230176070A1.
